test system: MDA-MB-453; assay: normalised viability (% of control), CellTiter-Blue; higher = more viable cells (about 100 = DMSO control); settings: 10 nM; incubation time: 72 h
readoutKind: normalised viability (%)
Reply with just the number (in %).

// normalised viability (MDA-MB-453) for O=C(Cc1ccc(-c2ccc(OCCN3CCOCC3)cc2)cn1)NCc1ccccc1 = 107

The compound N#Cc1ccc(C(c2ccc(C#N)cc2)n2cncn2)cc1 on MDA-MB-453: normalised viability was 88

Note to self: normalised viability of CCc1cncnc1N1CCN(Cc2nc3ccc(C(F)(F)F)cc3[nH]2)CC1 with MDA-MB-453 was 98.8

# lookup: Oc1ncc(N(CCCl)CCCl)c(O)n1 on MDA-MB-453, normalised viability = 107

Recorded normalised viability for C=CC(=O)Nc1cc2c(Nc3ccc(F)c(Cl)c3)ncnc2cc1OCCCN1CCOCC1 on MDA-MB-453 was 95

---

tested on: HCC1937; assay: normalised response (% of control), CellTox Green; higher = less cell death (100 = DMSO, 0 = benzethonium chloride kill control); details: incubation time: 72 h
Given measured normalised response, output fulfilled if it is greater than or equal to 90% and not fulfilled if not.

Quick check, normalised response >= 90%? CC[C@H](C)C(=O)O[C@H]1C[C@H](O)C=C2C=C[C@H](C)[C@H](CC[C@@H](O)C[C@@H](O)CC(=O)O)[C@H]21 [Pravastatin] (100 nM) fulfilled

Decide: normalised response of CC1=C(/C=C/C(C)=C/C=C/C(C)=C/C(=O)O)C(C)(C)CCC1 [Tretinoin] (100 nM) >= 90%? fulfilled

Dear colleague, could you confirm whether O=C(Cc1ccc(-c2ccc(OCCN3CCOCC3)cc2)cn1)NCc1ccccc1 [KX2-391] (10000 nM) has normalised response at or above 90%? not fulfilled

Is normalised response for C=CC(=O)Nc1cc2c(Nc3ccc(F)c(Cl)c3)ncnc2cc1OCCCN1CCOCC1 [Canertinib] (100 nM) at or above 90%? fulfilled

Given Nc1ccccc1NC(=O)c1ccc(CNC(=O)OCc2cccnc2)cc1 [Entinostat] (1000 nM) , state whether its normalised response is at least 90%. fulfilled

Confirm if normalised response reported for the compound COc1cc([C@@H]2c3cc4c(cc3[C@@H](O[C@@H]3O[C@@H]5CO[C@@H](c6cccs6)O[C@H]5[C@H](O)[C@H]3O)[C@H]3COC(=O)[C@H]23)OCO4)cc(OC)c1O [Teniposide] (10000 nM) is 90% or above. not fulfilled

---

system: CAL-85-1; assay: normalised viability (% of control), CellTiter-Blue; higher = more viable cells (about 100 = DMSO control); conditions: 1000 nM; incubation time: 72 h
readoutKind: normalised viability (%)
Give just the number in %; leave the unit off.

Entry CCCS(=O)(=O)Nc1ccc(F)c(C(=O)c2c[nH]c3ncc(-c4ccc(Cl)cc4)cc23)c1F ; assay system CAL-85-1; normalised viability recorded at 83.8

Observed normalised viability on CAL-85-1, entry CCc1cncnc1N1CCN(Cc2nc3ccc(C(F)(F)F)cc3[nH]2)CC1 , equals 101

Reading of normalised viability for CCCCC(=O)OCC(=O)[C@]1(O)Cc2c(O)c3c(c(O)c2[C@@H](O[C@H]2C[C@H](NC(=O)C(F)(F)F)[C@H](O)[C@H](C)O2)C1)C(=O)c1c(OC)cccc1C3=O with CAL-85-1: 61.3

Reading of normalised viability for COc1cc([C@@H]2c3cc4c(cc3[C@@H](O[C@@H]3O[C@@H]5CO[C@@H](c6cccs6)O[C@H]5[C@H](O)[C@H]3O)[C@H]3COC(=O)[C@H]23)OCO4)cc(OC)c1O [Teniposide] with CAL-85-1: 64.6
